The following compounds are listed with their measured IC50 values.
Biological target: recombinant human IDE42-1019 (Homo sapiens, UniProt P14735)
Construct: recombinant human IDE42-1019 (R&D Systems); purchased R&D Systems
Sequence (P14735 42-1019): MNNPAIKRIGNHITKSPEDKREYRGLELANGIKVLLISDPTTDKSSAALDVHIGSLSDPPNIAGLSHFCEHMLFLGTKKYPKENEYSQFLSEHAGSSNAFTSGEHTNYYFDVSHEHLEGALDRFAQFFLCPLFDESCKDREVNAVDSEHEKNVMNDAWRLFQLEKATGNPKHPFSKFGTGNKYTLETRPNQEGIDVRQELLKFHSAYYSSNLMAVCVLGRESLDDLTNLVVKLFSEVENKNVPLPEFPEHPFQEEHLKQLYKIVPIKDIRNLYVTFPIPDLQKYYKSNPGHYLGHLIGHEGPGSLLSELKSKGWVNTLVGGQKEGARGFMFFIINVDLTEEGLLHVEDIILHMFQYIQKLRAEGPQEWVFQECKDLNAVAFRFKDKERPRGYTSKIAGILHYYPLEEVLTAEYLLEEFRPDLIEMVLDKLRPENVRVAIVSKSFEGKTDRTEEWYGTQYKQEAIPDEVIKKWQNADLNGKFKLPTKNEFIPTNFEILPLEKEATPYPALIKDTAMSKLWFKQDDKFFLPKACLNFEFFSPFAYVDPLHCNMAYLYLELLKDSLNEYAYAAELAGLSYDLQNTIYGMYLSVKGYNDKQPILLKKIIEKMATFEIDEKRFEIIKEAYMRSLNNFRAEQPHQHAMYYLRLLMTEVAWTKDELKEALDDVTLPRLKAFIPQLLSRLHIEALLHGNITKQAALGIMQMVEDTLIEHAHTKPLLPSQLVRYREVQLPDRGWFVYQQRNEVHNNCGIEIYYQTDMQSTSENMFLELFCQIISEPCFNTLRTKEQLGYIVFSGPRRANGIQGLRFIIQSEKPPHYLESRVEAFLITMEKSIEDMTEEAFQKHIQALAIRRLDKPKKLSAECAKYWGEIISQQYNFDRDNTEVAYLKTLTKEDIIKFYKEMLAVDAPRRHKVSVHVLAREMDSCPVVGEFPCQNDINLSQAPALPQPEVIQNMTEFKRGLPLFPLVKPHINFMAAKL
Assay: Protease assay with fluorogenic peptide substrate Mca-[…](Dnp)-OH
Assay type: biochemical
Conditions: fluorogenic peptide Mca-RPPGFSAFK(Dnp)-OH; apparent IC50 for compounds with submaximal inhibition; read-out: IC50 (μM) Proteolysis
Kindly provide the numeric value in µM only, without the unit symbol.

Guide cases for IC50, answers given:
[
  {
    "COMPOUND": "Cc1c(-c2ccc([C@@H]3[C@@H](CO)N4CCCCN(S(=O)(=O)c5ccccc5C(F)(F)F)C[C@@H]34)cc2)cccc1C(F)(F)F [K19]",
    "OBS_VALUE": 0.1
  },
  {
    "COMPOUND": "COc1ccccc1-c1ccc([C@@H]2[C@@H](C#N)N(C(=O)NC3CCCCC3)[C@@H]2CO)cc1 [D8]",
    "OBS_VALUE": 1
  },
  {
    "COMPOUND": "Cc1c(F)ccc(-c2ccc([C@@H]3[C@@H](CO)N4CCCCN(S(=O)(=O)c5nccn5C)C[C@@H]34)cc2)c1C [JP-43]",
    "OBS_VALUE": 0.004
  }
]

Here's the next entry for you.
*Q* Look up IC50 for this compound: Cc1ccccc1-c1ccc([C@@H]2[C@@H](CO)N3C(=O)CN(S(C)(=O)=O)C[C@@H]23)cc1 [compound 585]
*A* 2.5
